Each recorded value in this set is attributed to ChEMBL document CHEMBL4480375.

ASSAY_SYSTEM: Sigma intracellular receptor 2 (Rattus norvegicus, UniProt Q5U3Y7)
Sequence (Q5U3Y7 whole entry): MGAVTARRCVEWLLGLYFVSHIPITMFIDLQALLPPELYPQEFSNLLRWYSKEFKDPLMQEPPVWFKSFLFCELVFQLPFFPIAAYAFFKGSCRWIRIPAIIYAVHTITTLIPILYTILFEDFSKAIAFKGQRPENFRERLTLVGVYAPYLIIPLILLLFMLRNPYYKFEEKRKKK
RUN_DESCRIPTION: Displacement of [3H]di-o-tolylguanidine from sigma2 receptor in rat liver membranes measured after 120 mins by scintillation counting analysis
pKi: −log10 of the molar value.
READOUT_LABEL: pKi

Known results for molecules:
MOLECULE | READOUT_LABEL | VALUE_MEASURED
c1ccc(CNC2CCc3ccsc3CC2)cc1 (stereo not given) | pKi | 7.30
COc1ccc2c(c1)CC[C@H](NCCCc1ccccc1)C[C@H]2O (relative stereo) | pKi | 5.96
Nc1ccc2c(c1)CCC(NCc1ccccc1)CC2 (stereo not given) | pKi | 6.11

I = OC1CC(NCc2ccccc2)CCc2sccc21 (mixture of isomers)
II = COc1ccc2c(c1)CC[C@H](NCCCc1ccccc1)C[C@@H]2O (relative stereo)
Qu. # query: argmin of pKi over I and II Please respond with the label that marks your chosen entry.
Ans. I
